Numbers sourced from patent US20250163061A1.

- experimentNotes: HEK293 cellular growth inhibition assay (CellTiter-Glo)
- Format: cell-based
- conditionLabel: human, HEK293 cells, 7 days of incubation
outcomeMeasure: CC50 at 7 days

Please review the following examples before continuing.
compound | CC50 at 7 days
Cc1c(CN2CCC3(CC2)CN(c2ncnc4ccc(CC(F)(F)F)cc24)C3)ccc2c1cc(C#N)n2CC12CC(NC=O)(C1)C2 [Compound 95] | 2000 to 5000 nM
CCCCS(=O)(=O)N1CCCN(C(C)Cn2c(C#N)cc3c(C)c(CN4CCC5(CC4)CN(c4ncnc6ccc(CC(F)(F)F)cc46)C5)ccc32)CC1 (stereo not drawn) [Compound 73] | > 20000 nM

Problem: What value of CC50 at 7 days has been recorded for this entry: Cc1c(CN2CCC3(CC2)CN(c2ncnc4ncc(CC(F)(F)F)cc24)C3)ccc2c1cc(C#N)n2CC(C)N1CCN(S(C)(=O)=O)CC1 (stereo not drawn) [Compound 89]
Solution: ≤ 2000 nM

Problem: What value of CC50 at 7 days has been recorded for this entry: C=CC(=O)N1CCN(CCCCn2c(C#N)cc3c(C)c(CN4CCC5(CC4)CN(c4ncnc6ccc(CC(F)(F)F)cc46)C5)ccc32)CC1 [Compound 65]
Solution: ≤ 2000 nM

Problem: What value of CC50 at 7 days has been recorded for this entry: Cc1c(CN2CCC3(CC2)CN(c2ncnc4ccc(CC(F)(F)F)cc24)C3)ccc2c1cc(C#N)n2CC1CNC(=O)C(C)O1 (stereo not drawn) [Compound 7]
Solution: 2000 to 5000 nM

Problem: What value of CC50 at 7 days has been recorded for this entry: Cc1c(CN2CCC3(CC2)CN(c2ncnc4ccc(CC(F)(F)F)cc24)C3)ccc2c1cc(C#N)n2C[C@@H]1CNC(=O)CO1 [Compound 102]
Solution: ≤ 2000 nM

###

- experimentNotes: HEK293 cellular growth inhibition assay (CellTiter-Glo)
- Type: cell-based
- conditionLabel: human, HEK293 cells, 7 days of incubation
Parameter CC50 at 7 days: see the listing below.

compound | measuredResult
Cc1c(CN2CCC3(CC2)CN(c2ncnc4ccc(CC(F)(F)F)cc24)C3)ccc2c1cc(C#N)n2CCN1CCOCC1 | 2 to 5 µM
Cc1c(CN2CCC3(CC2)CN(c2ncnc4ccc(CC(F)(F)F)cc24)C3)ccc2c1cc(C#N)n2C[C@H]1CC[C@H](NS(C)(=O)=O)CC1 | 10 to 20 µM
Cc1c(CN2CCC3(CC2)CN(c2ncnc4ccc(CC(F)(F)F)nc24)C3)ccc2c1cc(C#N)n2CC(C)N1CCN(S(C)(=O)=O)CC1 (stereo not shown) | 5 to 10 µM

Problem: What value of CC50 at 7 days has been recorded for this entry: Cc1c(CN2CCC3(CC2)CN(c2ncnc4ccc(CC(F)(F)F)cc24)C3)ccc2c1cc(C#N)n2CC1CNC(=O)C1 (stereo not shown)
Solution: 2 to 5 µM

Problem: What value of CC50 at 7 days has been recorded for this entry: `N#Cc1cc2cc(CN3CCC4(CC3)CN(c3ncnc5ccc(CC(F)(F)F)cc35)C4)ccc2[nH]1`
Solution: 5 to 10 µM

Problem: What value of CC50 at 7 days has been recorded for this entry: CCS(=O)(=O)N1CCCN(C(C)Cn2c(C#N)cc3c(C)c(CN4CCC5(CC4)CN(c4ncnc6ccc(CC(F)(F)F)cc46)C5)ccc32)CC1 (stereo not shown)
Solution: 5 to 10 µM

Problem: What value of CC50 at 7 days has been recorded for this entry: Cc1c(CN2CCC3(CC2)CN(c2ncnc4ccc(CC(F)(F)F)cc24)C3)ccc2c1cc(C#N)n2C(C)CCN1CCN(S(C)(=O)=O)CC1 (stereo not shown)
Solution: 5 to 10 µM
